Hello, the source for this data is patent US8133847B2, in case you need it.

Tested on: Amaranthus retroflexus (AMARE)
Assay: Example B1 herbicidal action, post-emergence, 96-cell seed trays, climatic chamber
Assay type: in vivo
Settings: Application post-emergence, 1000 mg/l spray equivalent to 1000 g/ha, evaluated after 9 days
Threshold-based label: damage to plant, Amaranthus retroflexus (AMARE) under 5 gives T, damage to plant, Amaranthus retroflexus (AMARE) not under 5 gives F.

Some solved entries appear below for comparison.
Query string: Given the entry `CC(C)C(=O)Oc1c(-c2cc(C(F)(F)F)ccc2Cl)c(=O)[nH]c2nccnc12` , would its reported damage to plant, Amaranthus retroflexus (AMARE) be below 5?
Result string: T

Query string: Given the entry `CCCCn1c(=O)c(-c2c(Cl)cccc2Cl)c(OC(C)=O)c2nccnc21` , would its reported damage to plant, Amaranthus retroflexus (AMARE) be below 5?
Result string: T

Query string: Given the entry `CCn1c(=O)c(-c2ccc(Cl)cc2Cl)c(OC(=O)C(C)C)c2nccnc21` , would its reported damage to plant, Amaranthus retroflexus (AMARE) be below 5?
Result string: F

Query string: Given the entry `CC(C)C(=O)Oc1c(-c2c(F)ccc(F)c2Cl)c(=O)n(C)c2nc(Cl)cnc12` , would its reported damage to plant, Amaranthus retroflexus (AMARE) be below 5?
Result string: T

Query string: Given the entry `CC(=O)Oc1c(-c2ccc(Cl)cc2Cl)c(=O)[nH]c2nccnc12` , would its reported damage to plant, Amaranthus retroflexus (AMARE) be below 5?
Result string: F

Others:
Query string: Given the entry `CC(=O)Oc1c(-c2c(Cl)cccc2Cl)c(=O)n(C)c2nccnc12` , would its reported damage to plant, Amaranthus retroflexus (AMARE) be below 5?
Result string: T

Query string: Given the entry `CCC(=O)Oc1c(-c2ccccc2OC(F)(F)F)c(=O)n(C)c2nccnc12` , would its reported damage to plant, Amaranthus retroflexus (AMARE) be below 5?
Result string: T

Query string: Given the entry `COc1ccccc1-c1c(OC(=O)C(C)C)c2nccnc2n(C)c1=O` , would its reported damage to plant, Amaranthus retroflexus (AMARE) be below 5?
Result string: T

* * *

damage to plant, Amaranthus retroflexus (AMARE) values for the compounds below.
Test system: Amaranthus retroflexus (AMARE)
Assay: Example B2 herbicidal action, post-emergence, pots in glasshouse
Type: in vivo
Conditions: Application post-emergence, evaluated after 13 days (100=total damage to plant; 0=no damage to plant)
Answer with a number only.

Query string: Give reported damage to plant, Amaranthus retroflexus (AMARE) value for `CCn1c(=O)c(-c2ccccc2OC(F)F)c(OC(=O)C(C)(C)C)c2nccnc21`
Result string: 9

Query string: Give reported damage to plant, Amaranthus retroflexus (AMARE) value for `CCn1c(=O)c(-c2ccc(C(F)(F)F)cc2Br)c(OC(=O)C(C)(C)C)c2nccnc21`
Result string: 2

Query string: Give reported damage to plant, Amaranthus retroflexus (AMARE) value for `CC(C)C(=O)Oc1c(-c2cc(F)c(Cl)cc2Cl)c(=O)[nH]c2nccnc12`
Result string: 2

Now examine the next entry.
Query string: Give reported damage to plant, Amaranthus retroflexus (AMARE) value for `Cn1c(=O)c(-c2cc(F)ccc2Cl)c(OC(=O)C(C)(C)C)c2nccnc21`
Result string: 10

* * *

damage to plant, Nasturtium officinale (NAAOF) values for the compounds below.
Test system: Nasturtium officinale (NAAOF)
Assay: Example B1 herbicidal action, post-emergence, 96-cell seed trays, climatic chamber
Format: in vivo
Set-up: scale not given here
Conditions: Application post-emergence, 1000 mg/l spray equivalent to 1000 g/ha, evaluated after 9 days (100=total damage to plant, 0=no damage to plant)
Protocol: Seeds of a variety of test species were sown in sterilised standard soil in seed trays each having 96 cells. […] After 9 days until the test was evaluated (100=total damage to plant, 0=no damage to plant)

Query string: Give reported damage to plant, Nasturtium officinale (NAAOF) value for `O=c1[nH]c2nccnc2c(O)c1-c1c(Cl)cccc1Cl`
Result string: 6

Query string: Give reported damage to plant, Nasturtium officinale (NAAOF) value for `CCn1c(=O)c(-c2ccc(Cl)cc2)c(OC(C)=O)c2nccnc21`
Result string: 8

Query string: Give reported damage to plant, Nasturtium officinale (NAAOF) value for `CCn1c(=O)c(-c2cccc(Cl)c2Cl)c(OC(=O)C(C)C)c2nccnc21`
Result string: 8

Query string: Give reported damage to plant, Nasturtium officinale (NAAOF) value for `CCn1c(=O)c(-c2ccc(Cl)cc2Cl)c(OC(=O)C(C)C)c2nccnc21`
Result string: 10

Query string: Give reported damage to plant, Nasturtium officinale (NAAOF) value for `CC(C)n1c(=O)c(-c2ccccc2OC(F)(F)F)c(OC(=O)C(C)(C)C)c2nccnc21`
Result string: 0

Others:
Query string: Give reported damage to plant, Nasturtium officinale (NAAOF) value for `CCn1c(=O)c(-c2c(F)ccc(F)c2Cl)c(OC(C)=O)c2nccnc21`
Result string: 8

Query string: Give reported damage to plant, Nasturtium officinale (NAAOF) value for `O=c1[nH]c2nccnc2c(O)c1-c1ccccc1Cl`
Result string: 2

Query string: Give reported damage to plant, Nasturtium officinale (NAAOF) value for `Cn1c(=O)c(-c2c(F)ccc(F)c2Cl)c(O)c2c1ncc[n+]2[O-]`
Result string: 7

Query string: Give reported damage to plant, Nasturtium officinale (NAAOF) value for `CC(C)C(=O)Oc1c(-c2ccc(F)cc2Cl)c(=O)[nH]c2nccnc12`
Result string: 0
